Where these numbers come from: paper PMC11433870

Biological target: human recombinant MAOB enzyme (hMAOB) (Homo sapiens, UniProt P27338)
Sequence (P27338 1-520): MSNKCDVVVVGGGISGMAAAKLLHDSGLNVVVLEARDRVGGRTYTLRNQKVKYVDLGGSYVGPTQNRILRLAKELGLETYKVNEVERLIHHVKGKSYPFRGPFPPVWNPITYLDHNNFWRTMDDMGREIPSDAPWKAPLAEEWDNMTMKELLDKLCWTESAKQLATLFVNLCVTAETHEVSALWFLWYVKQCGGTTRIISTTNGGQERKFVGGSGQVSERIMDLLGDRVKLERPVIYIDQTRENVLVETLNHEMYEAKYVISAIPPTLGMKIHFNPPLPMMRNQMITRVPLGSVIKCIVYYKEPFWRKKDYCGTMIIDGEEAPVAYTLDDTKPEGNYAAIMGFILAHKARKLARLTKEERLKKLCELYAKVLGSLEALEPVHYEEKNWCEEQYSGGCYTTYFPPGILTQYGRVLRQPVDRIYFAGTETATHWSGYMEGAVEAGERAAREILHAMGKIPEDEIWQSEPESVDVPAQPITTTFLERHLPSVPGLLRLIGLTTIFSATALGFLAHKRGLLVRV
Assay: Human recombinant MAOB enzyme activity (fluorometric, Amplex Red);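 further: tyramine as substrate, H2O2 formation detected by horseradish peroxidase coupled Amplex Red fluorescence read at 570 and 690 nm, compounds incubated with enzyme 30 min at 37 °C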
Assay type: biochemical
// reported SI: hMAOB selectivity index = IC50(hMAOA)/IC50(hMAOB) per item

CCOC(=O)c1cc(-c2ccc(Br)cc2)n(CCC(=O)NN=Cc2ccc([N+](=O)[O-])cc2)c1C; >123
CCOC(=O)c1cc(-c2ccc(Br)cc2)n(CC(=O)NN=Cc2ccc([N+](=O)[O-])cc2)c1C; >123
CCOC(=O)c1cc(-c2ccc(Br)cc2)n(CCC(=O)NN=Cc2ccc(Cl)cc2)c1C; >123
CCOC(=O)c1cc(-c2ccc(Br)cc2)n(CCC(=O)NN=Cc2ccc(N(C)C)cc2)c1C; >122
CCOC(=O)c1cc(-c2ccc(Br)cc2)n(CC(=O)NN=Cc2ccc(N(C)C)cc2)c1C; >123
CCOC(=O)c1cc(-c2ccc(Br)cc2)n(CCC(=O)NN=Cc2cc(OC)c(O)c(OC)c2)c1C; >204
CCOC(=O)c1cc(-c2ccc(Br)cc2)n(CCC(=O)NN=Cc2ccc(OC)cc2OC)c1C; >122
CCOC(=O)c1cc(-c2ccc(Br)cc2)n(CC(=O)NN=Cc2cc(OC)c(O)c(OC)c2)c1C; >204
CCOC(=O)c1cc(-c2ccc(Br)cc2)n(CC(=O)NN=Cc2ccc(OC)cc2OC)c1C; >123

Okay, now this compound:
INPUT: Consider the compound `CCOC(=O)c1cc(-c2ccc(Br)cc2)n(CC(=O)NN=Cc2ccc(Cl)cc2)c1C` and give its measured SI: hMAOB selectivity index = IC50(hMAOA)/IC50(hMAOB).
OUTPUT: >181
